# pIC50 listing for each entry below
# test.target: kinases (kinome) (Homo sapiens, UniProt P10398)
# Construct: determined in kinobeads assays with mass spectrometry detection of kinases as described previously; endogenous in cells
# Sequence (P10398 whole entry): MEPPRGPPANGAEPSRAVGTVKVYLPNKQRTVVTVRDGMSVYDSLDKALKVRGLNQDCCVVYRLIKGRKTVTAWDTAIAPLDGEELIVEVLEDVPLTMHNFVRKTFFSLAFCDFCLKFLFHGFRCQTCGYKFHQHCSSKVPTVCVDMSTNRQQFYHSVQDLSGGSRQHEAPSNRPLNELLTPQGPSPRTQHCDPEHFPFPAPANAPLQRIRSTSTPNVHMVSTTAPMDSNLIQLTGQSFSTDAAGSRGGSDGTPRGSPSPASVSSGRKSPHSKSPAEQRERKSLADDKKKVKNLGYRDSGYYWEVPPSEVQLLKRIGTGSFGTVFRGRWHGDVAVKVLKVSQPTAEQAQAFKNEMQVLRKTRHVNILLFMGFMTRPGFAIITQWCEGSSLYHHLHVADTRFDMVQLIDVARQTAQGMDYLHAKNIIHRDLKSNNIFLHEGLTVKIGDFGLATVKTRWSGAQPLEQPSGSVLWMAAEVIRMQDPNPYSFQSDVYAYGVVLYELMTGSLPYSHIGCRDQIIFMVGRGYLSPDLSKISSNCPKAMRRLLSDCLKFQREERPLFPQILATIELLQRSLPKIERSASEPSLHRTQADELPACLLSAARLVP
# run.description: kinobeads assay with mass spectrometry detection of kinases (kinase selectivity profile)
# condition.notes: ARAF (TKL), IPI00020578
pIC50: −log10 of the molar value.

item.smiles: C[C@H]1COCCN1c1cc(-c2ccccn2)nc(-c2ccc(NC(=O)NCCO)cc2)n1
test.target: kinases (kinome) (Homo sapiens, UniProt P10398)
pIC50: < 5.00

item.smiles: C[C@H]1COCCN1c1cc(-c2ccccc2S(C)(=O)=O)nc(-c2ccc(NC(=O)NC3CC3)cc2)n1
test.target: kinases (kinome) (Homo sapiens, UniProt P10398)
pIC50: < 5.00

item.smiles: C[C@H]1COCCN1c1nc(-c2ccc(NC(=O)N[C@H]3CCC[C@@H]3O)cc2)cc(-c2cc(F)ccc2S(C)(=O)=O)n1
test.target: kinases (kinome) (Homo sapiens, UniProt P10398)
pIC50: < 5.00

Source listed as patent US9249129B2.
